# Test system: HepG2
# Procedure summary: cytotoxicity call (relative viability < 0.9)
# Applied conditions: 10 µM
The campaign covered roughly 39,000 compounds. About 3,300 (8.5%) were called active. This is one part of a sample in which actives are shown more often than they occur.
API: response.call in active, inactive

[
  {
    "Sample smiles": "C[C@H]1CCCCO[C@H](CN(C)Cc2ccc(C(F)(F)F)cc2)[C@@H](C)CN([C@@H](C)CO)C(=O)c2cc(NC(=O)Nc3ccc4c(c3)OCO4)ccc2O1",
    "Category": "active"
  }
]

Lookup: What is the recorded call for this compound in the test? COCC#Cc1ccc2c(c1)O[C@H](CN(C)C(=O)Nc1ccc(OC)cc1)[C@H](C)CN([C@H](C)CO)S2(=O)=O
Found: inactive

====

# System: HepG2
# Procedure summary: cytotoxicity call (relative viability < 0.9)
# Applied conditions: 10 µM
The campaign covered roughly 39,000 compounds. About 3,300 (8.5%) were called active. What follows is part of a selection rich in actives, with near analogues and random picks from the rest.
Assay metric: cytotoxicity call

Study these solved cases before continuing.
[
  {
    "Sample smiles": "C[C@@H]1CN([C@@H](C)CO)C(=O)CCCn2nncc2CO[C@H]1CN(C)C(=O)Nc1ccc(N2CCN(C)CC2)cc1",
    "cytotoxicity call": "inactive"
  },
  {
    "Sample smiles": "Cc1cn2c(=O)c(C(=O)O)cnc2s1",
    "cytotoxicity call": "inactive"
  },
  {
    "Sample smiles": "C[C@@H]1CN([C@H](C)CO)C(=O)c2cc(NC(=O)Nc3ccccc3)ccc2O[C@@H]1CN(C)Cc1ccc(Cl)c(Cl)c1",
    "cytotoxicity call": "inactive"
  },
  {
    "Sample smiles": "C[C@@H]1CN([C@@H](C)CO)C(=O)c2cc(NC(=O)Nc3ccccc3)ccc2O[C@@H]1CN(C)Cc1ccc(Cl)c(Cl)c1",
    "cytotoxicity call": "active"
  },
  {
    "Sample smiles": "C[C@H]1CN([C@@H](C)CO)C(=O)c2cc(NC(=O)Nc3ccccc3)ccc2O[C@H]1CN(C)Cc1ccc(Cl)c(Cl)c1",
    "cytotoxicity call": "active"
  },
  {
    "Sample smiles": "C[C@H](CO)N1C[C@H](C)[C@H](CN(C)Cc2ccc(Cl)c(Cl)c2)Oc2ccc(NC(=O)Nc3ccccc3)cc2C1=O",
    "cytotoxicity call": "inactive"
  },
  {
    "Sample smiles": "C[C@H]1CN([C@@H](C)CO)C(=O)c2cc(NC(=O)Nc3ccccc3)ccc2O[C@@H]1CN(C)Cc1ccc(Cl)c(Cl)c1",
    "cytotoxicity call": "inactive"
  }
]

With those in mind, consider the next compound.
Lookup: Notebook entry, HepG2 assay: cytotoxicity call of C[C@@H]1CN([C@H](C)CO)C(=O)c2cc(NC(=O)Nc3ccccc3)ccc2O[C@H]1CN(C)Cc1ccc(Cl)c(Cl)c1 = ?
Found: inactive

====

# Test system: HepG2
# Procedure summary: cytotoxicity call (relative viability < 0.9)
# Applied conditions: 10 µM
Among all 39,000 compounds or so, about 3,300 (8.5%) were called active. The sample holds actives, similar compounds and a random draw of the others, so the mix is not that of the screen.
Hello, when you answer, please use one of the following outcomes: True for active, False for inactive

[
  {
    "Sample smiles": "C[C@@H]1CN([C@H](C)CO)C(=O)c2cc(NS(C)(=O)=O)ccc2O[C@H]1CN(C)C(=O)Nc1ccc(C(F)(F)F)cc1",
    "Category": "False"
  },
  {
    "Sample smiles": "C[C@H]1CN([C@@H](C)CO)C(=O)c2cc(NS(C)(=O)=O)ccc2O[C@H]1CN(C)C(=O)Nc1ccc(C(F)(F)F)cc1",
    "Category": "True"
  },
  {
    "Sample smiles": "NCCCN",
    "Category": "False"
  },
  {
    "Sample smiles": "C[C@@H]1CCCCO[C@H](CN(C)C(=O)Nc2ccccc2)[C@H](C)CN([C@@H](C)CO)C(=O)c2cc(NC(=O)Nc3ccc(C(F)(F)F)cc3)ccc2O1",
    "Category": "False"
  }
]

Lookup: Test call for this compound, please: COc1ccccc1S(=O)(=O)N(C)C[C@H]1Oc2cc(Br)ccc2S(=O)(=O)N([C@H](C)CO)C[C@H]1C
Found: False

Lookup: What about C[C@H](CO)N1C[C@H](C)[C@@H](CN(C)C(=O)Nc2ccc(C(F)(F)F)cc2)Oc2ccc(NS(C)(=O)=O)cc2C1=O ?
Found: False

Lookup: Now give it for COc1ccc(S(=O)(=O)Nc2ccc3c(c2)C(=O)N([C@H](C)CO)C[C@@H](C)[C@@H](CN(C)C(=O)CCC(F)(F)F)OCCCC[C@@H](C)O3)cc1 too.
Found: False

Lookup: Next record, please: C[C@@H]1CN([C@H](C)CO)S(=O)(=O)c2ccc(C#Cc3cccc(F)c3)cc2O[C@H]1CN(C)S(=O)(=O)c1cn(C)cn1
Found: False

====

# System: HepG2
# Procedure summary: cytotoxicity call (relative viability < 0.9)
# Applied conditions: 10 µM
Out of some 39,000 compounds screened, about 3,300 (8.5%) were called active. The sample holds actives, similar compounds and a random draw of the others, so the mix is not that of the screen.
One label from this list, please: active, inactive

[
  {
    "Sample smiles": "C[C@H]1CN([C@@H](C)CO)C(=O)c2cccc(NC(=O)c3ccncc3)c2O[C@H]1CN(C)S(=O)(=O)c1cccs1",
    "System": "HepG2",
    "Category": "inactive"
  }
]

Lookup: # lookup: test call for C[C@@H]1CN([C@H](C)CO)C(=O)c2cccc(NC(=O)c3ccncc3)c2O[C@H]1CN(C)S(=O)(=O)c1cccs1
Found: inactive

Lookup: Continue with C[C@@H]1CN([C@@H](C)CO)C(=O)c2cccc(NC(=O)c3ccncc3)c2O[C@H]1CN(C)S(=O)(=O)c1cccs1
Found: inactive

Lookup: Another: CCCNC(=O)N1C[C@@H](O)COC[C@H]2O[C@H](CC(=O)N3CCOCC3)CC[C@@H]21
Found: inactive

Lookup: Now the compound N#Cc1ccc[nH]c1=O
Found: inactive

Lookup: Now this one: C[C@@H]1CN([C@@H](C)CO)C(=O)c2cc(NC(=O)Cc3cn(C)c4ccccc34)ccc2O[C@@H]1CN(C)CC1CCCCC1
Found: inactive

Lookup: For Cc1noc(C)c1NC(=O)Nc1ccc2c(c1)CC(=O)N([C@H](C)CO)C[C@H](C)[C@@H](CN(C)Cc1ccc(Oc3ccccc3)cc1)O2 then?
Found: inactive

Lookup: Another compound: Cc1ccc(S(=O)(=O)N(C)C[C@H]2OCCCC[C@H](C)Oc3ccc(NC(=O)Nc4cccc5ccccc45)cc3C(=O)N([C@H](C)CO)C[C@H]2C)cc1
Found: inactive

Lookup: Next compound up: C[C@@H]1CN([C@@H](C)CO)C(=O)c2cccc(NC(=O)C3CCOCC3)c2O[C@@H]1CN(C)S(=O)(=O)c1ccc(F)cc1
Found: inactive

Lookup: Try the compound C[C@@H]1CN([C@H](C)CO)C(=O)c2cc(NC(=O)Cn3cnnn3)ccc2O[C@H]1CN(C)Cc1ccc(Cl)c(Cl)c1
Found: inactive

Lookup: Do the same for C[C@H](CO)N1C[C@H](C)[C@H](CN(C)S(=O)(=O)c2ccccc2)Oc2ccc(NC(=O)Nc3cccc4ccccc34)cc2C1=O please
Found: inactive

Lookup: Same for COCC(=O)N1C[C@@H](C)[C@@H](OC)CN(C)C(=O)c2ccc(NC(=O)c3cc(C)on3)cc2OC[C@@H]1C
Found: inactive

Lookup: Queued: C[C@H](CO)N1C[C@H](C)[C@H](CN(C)C(=O)NC2CCCCC2)Oc2c(NS(=O)(=O)c3cn(C)cn3)cccc2C1=O
Found: inactive

Lookup: Also Cc1cc(CCC[C@H](CC(=O)NO)C(=O)N[C@H](C(=O)N[C@H](C)c2ccccc2)C(C)(C)C)ccc1-c1ccccc1 , if possible.
Found: active

Lookup: Thanks! And COc1ccc([Si](C)(C)[C@H]2[C@H](CC(=O)N3Cc4ccccc4C[C@H]3CO)O[C@@]3(C(=O)N(C)c4c(Br)cc(C)cc43)[C@@H]2C)cc1 ?
Found: inactive

Lookup: Also check CCS(=O)(=O)N1CC[C@]2(CC1)CN([C@@H](CO)c1c2c2ccc(cc2n1C)OC)C(=O)c1cccc(c1)F
Found: inactive

Lookup: Also need C[C@@H]1CN([C@H](C)CO)C(=O)c2cc(NS(=O)(=O)c3cn(C)cn3)ccc2O[C@@H](C)CCCCO[C@@H]1CN(C)C , thanks.
Found: inactive

Lookup: Here is the next compound: C[C@@H]1CN([C@@H](C)CO)C(=O)c2cccc(NC(=O)c3ccncc3)c2O[C@@H]1CN(C)S(=O)(=O)c1cccs1
Found: active
